Can you tell me pIC50 for the items I'm about to list?
- Test system: P. falciparum 3D7 strain, chloroquine sensitive
- protocolDescription: In vitro antimalarial activity screening (SYBR Green I micromethod)
- Assay type: cell-based
- recordedConditions: Plasmodium falciparum, 3D7; Table 1; 48 h incubation; mean of two experiments in triplicate; read-out: P. falciparum 3D7 IC50
Lab note — pIC50 values are minus log10 of concentrations in M.

// field: pIC50; key: O=[N+]([O-])c1ccc(N2CCC(NCCC(O)c3csc4ccccc34)CC2)cc1 (centres unmarked) ; value = 6.00

Item: O=[N+]([O-])c1ccc(N2CCC(NCCC(O)c3csc4ccccc34)CC2)c(C(F)(F)F)c1 (centres unmarked) | pIC50: 6.72

The recorded pIC50 for OC(CCN1CCN(c2ccc(Cl)cc2)CC1)c1csc2ccccc12 (centres unmarked) is 5.25

Lab note: measured pIC50 of Oc1ccccc1N1CCN(CCC(O)c2csc3ccccc23)CC1 (centres unmarked) was 4.86

For this compound ( OC(CCN1CCN(c2cccc3ccccc23)CC1)c1csc2ccccc12 (centres unmarked) ), measured pIC50 is 5.21
